- Target or system: Gonadotropin-releasing hormone receptor (Homo sapiens, UniProt P30968, D302N)
- Assay summary: Displacement of [His5, D-Tyr6]GnRH from GnRHR D302N mutant expressed in COS7 cells
pIC50: −log10 of the molar value.
Quantity kind: pIC50

CN(Cc1ccccc1)Cc1c(-c2ccc(NC3=NCCN3)cc2)sc2c1c(=O)n(-c1ccccc1)c(=O)n2Cc1c(F)cccc1F ... 5.68
CC(=O)Nc1ccc(-c2sc3c(c2CN(C)Cc2ccccc2)c(=O)n(-c2ccccc2)c(=O)n3Cc2c(F)cccc2F)cc1 ... 6.80
CN(Cc1ccccc1)Cc1c(-c2ccc(NC(=O)NCc3ccccc3)cc2)sc2c1c(=O)n(-c1ccccc1)c(=O)n2Cc1c(F)cccc1F ... 6.30
CN(CCc1ccccc1)Cc1c(-c2ccc([N+](=O)[O-])cc2)sc2c1c(=O)n(-c1ccccc1)c(=O)n2Cc1c(F)cccc1F ... 5.72

(A) CN(Cc1ccccc1)Cc1c(-c2ccc(NC(=O)c3ccccc3)cc2)sc2c1c(=O)n(-c1ccccc1)c(=O)n2Cc1c(F)cccc1F
(B) CN(CCc1ccccn1)Cc1c(-c2ccc([N+](=O)[O-])cc2)sc2c1c(=O)n(-c1ccccc1)c(=O)n2Cc1c(F)cccc1F
(C) CN(Cc1ccccc1)Cc1c(-c2ccc(N)cc2)sc2c1c(=O)n(-c1ccccc1)c(=O)n2Cc1c(F)cccc1F
(D) CN(Cc1ccccc1)Cc1c(-c2ccc([N+](=O)[O-])cc2)sc2c1c(=O)n(-c1ccccc1)c(=O)n2Cc1c(F)cccc1F
Input: Please put the entries in order of rising pIC50. List the labels in the requested order.
Output: D, C, B, A
(D: 5.85, C: 6.28, B: 7.40, A: 7.89)

###

- Target or system: Gonadotropin-releasing hormone receptor (Homo sapiens, UniProt P30968, D302A)
- Sequence (P30968 whole entry D302A): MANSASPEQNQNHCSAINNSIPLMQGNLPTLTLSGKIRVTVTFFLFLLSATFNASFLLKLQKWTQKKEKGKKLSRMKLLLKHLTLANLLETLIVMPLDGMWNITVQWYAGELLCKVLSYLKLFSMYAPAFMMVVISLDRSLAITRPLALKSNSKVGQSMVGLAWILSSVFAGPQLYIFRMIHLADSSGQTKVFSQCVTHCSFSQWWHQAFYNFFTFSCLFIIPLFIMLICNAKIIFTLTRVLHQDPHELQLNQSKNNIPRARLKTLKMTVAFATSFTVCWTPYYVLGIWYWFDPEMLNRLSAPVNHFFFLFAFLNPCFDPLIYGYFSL
- Assay summary: Displacement of [His5, D-Tyr6]GnRH from GnRHR D302A mutant expressed in COS7 cells
Quantity kind: IC50 (nM)

Here are 5 compounds together with their reported answers.
CN(Cc1ccccc1)Cc1c(-c2ccc(NC(=O)c3ccccc3)cc2)sc2c1c(=O)n(-c1ccccc1)c(=O)n2Cc1c(F)cccc1F ... 15
CN(Cc1ccccc1)Cc1c(-c2ccc(NC3=NCCN3)cc2)sc2c1c(=O)n(-c1ccccc1)c(=O)n2Cc1c(F)cccc1F ... 3300
CN(CCc1ccccn1)Cc1c(-c2ccc([N+](=O)[O-])cc2)sc2c1c(=O)n(-c1ccccc1)c(=O)n2Cc1c(F)cccc1F ... 58
CN(Cc1ccccc1)Cc1c(-c2ccc(N)cc2)sc2c1c(=O)n(-c1ccccc1)c(=O)n2Cc1c(F)cccc1F ... 390
CN(CCc1ccccc1)Cc1c(-c2ccc([N+](=O)[O-])cc2)sc2c1c(=O)n(-c1ccccc1)c(=O)n2Cc1c(F)cccc1F ... 1600

(I) CN(Cc1ccccc1)Cc1c(-c2ccc(NC(=O)NCc3ccccc3)cc2)sc2c1c(=O)n(-c1ccccc1)c(=O)n2Cc1c(F)cccc1F
(II) CC(=O)Nc1ccc(-c2sc3c(c2CN(C)Cc2ccccc2)c(=O)n(-c2ccccc2)c(=O)n3Cc2c(F)cccc2F)cc1
Input: Between I and II , whose recorded IC50 is greater? Write down the label attached to your selection.
Output: I
(I: 1100 nM, II: 210 nM)

###

- Target or system: Gonadotropin-releasing hormone receptor (Homo sapiens, UniProt P30968, F313L)
- Sequence (P30968 whole entry F313L): as the sequence (P30968 whole entry D302A) above, with A302D, F313L counted along it
- Assay summary: Displacement of [His5, D-Tyr6]GnRH from GnRHR F313L mutant expressed in COS7 cells
pIC50: −log10 of the molar value.
Quantity kind: pIC50

CC(=O)Nc1ccc(-c2sc3c(c2CN(C)Cc2ccccc2)c(=O)n(-c2ccccc2)c(=O)n3Cc2c(F)cccc2F)cc1 ... 5.70

(I) CN(Cc1ccccc1)Cc1c(-c2ccc(NC(=O)c3ccccc3)cc2)sc2c1c(=O)n(-c1ccccc1)c(=O)n2Cc1c(F)cccc1F
(II) CN(CCc1ccccn1)Cc1c(-c2ccc([N+](=O)[O-])cc2)sc2c1c(=O)n(-c1ccccc1)c(=O)n2Cc1c(F)cccc1F
(III) CN(Cc1ccccc1)Cc1c(-c2ccc(NC(=O)NCc3ccccc3)cc2)sc2c1c(=O)n(-c1ccccc1)c(=O)n2Cc1c(F)cccc1F
Input: Task for the reader: rank each entry by its pIC50, from the minimum upward. Would you mind listing the labels in the order asked for?
Output: II, III, I
(II: 5.35, III: 5.85, I: 6.40)

###

- Target or system: Gonadotropin-releasing hormone receptor (Homo sapiens, UniProt P30968, M24I)
- Sequence (P30968 whole entry M24I): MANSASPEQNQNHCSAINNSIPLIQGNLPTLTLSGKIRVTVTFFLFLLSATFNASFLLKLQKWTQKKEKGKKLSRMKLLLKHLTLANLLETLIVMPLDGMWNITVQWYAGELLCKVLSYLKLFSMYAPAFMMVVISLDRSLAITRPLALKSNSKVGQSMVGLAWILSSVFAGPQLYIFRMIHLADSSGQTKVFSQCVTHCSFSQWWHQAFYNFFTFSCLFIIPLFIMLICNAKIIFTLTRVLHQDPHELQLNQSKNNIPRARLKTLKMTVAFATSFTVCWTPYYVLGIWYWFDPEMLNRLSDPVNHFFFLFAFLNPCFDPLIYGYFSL
- Assay summary: Displacement of [His5, D-Tyr6]GnRH from GnRHR M24I mutant expressed in COS7 cells
Quantity kind: IC50 (µM)

CN(Cc1ccccc1)Cc1c(-c2ccc(NC(=O)NCc3ccccc3)cc2)sc2c1c(=O)n(-c1ccccc1)c(=O)n2Cc1c(F)cccc1F ... 0.39

(1) CC(=O)Nc1ccc(-c2sc3c(c2CN(C)Cc2ccccc2)c(=O)n(-c2ccccc2)c(=O)n3Cc2c(F)cccc2F)cc1
(2) CN(Cc1ccccc1)Cc1c(-c2ccc(N)cc2)sc2c1c(=O)n(-c1ccccc1)c(=O)n2Cc1c(F)cccc1F
(3) CN(Cc1ccccc1)Cc1c(-c2ccc(NC(=O)c3ccccc3)cc2)sc2c1c(=O)n(-c1ccccc1)c(=O)n2Cc1c(F)cccc1F
Input: In this exercise, place the 3 compounds in ascending sequence of their recorded IC50. Answer format: list of labels, ordered as asked.
Output: 3, 1, 2
(3: 0.38 µM, 1: 2.3 µM, 2: 4 µM)
